# TESTED_SYSTEM: SIRT1 (Homo sapiens, UniProt Q96EB6)
# Sequence (Q96EB6 whole entry): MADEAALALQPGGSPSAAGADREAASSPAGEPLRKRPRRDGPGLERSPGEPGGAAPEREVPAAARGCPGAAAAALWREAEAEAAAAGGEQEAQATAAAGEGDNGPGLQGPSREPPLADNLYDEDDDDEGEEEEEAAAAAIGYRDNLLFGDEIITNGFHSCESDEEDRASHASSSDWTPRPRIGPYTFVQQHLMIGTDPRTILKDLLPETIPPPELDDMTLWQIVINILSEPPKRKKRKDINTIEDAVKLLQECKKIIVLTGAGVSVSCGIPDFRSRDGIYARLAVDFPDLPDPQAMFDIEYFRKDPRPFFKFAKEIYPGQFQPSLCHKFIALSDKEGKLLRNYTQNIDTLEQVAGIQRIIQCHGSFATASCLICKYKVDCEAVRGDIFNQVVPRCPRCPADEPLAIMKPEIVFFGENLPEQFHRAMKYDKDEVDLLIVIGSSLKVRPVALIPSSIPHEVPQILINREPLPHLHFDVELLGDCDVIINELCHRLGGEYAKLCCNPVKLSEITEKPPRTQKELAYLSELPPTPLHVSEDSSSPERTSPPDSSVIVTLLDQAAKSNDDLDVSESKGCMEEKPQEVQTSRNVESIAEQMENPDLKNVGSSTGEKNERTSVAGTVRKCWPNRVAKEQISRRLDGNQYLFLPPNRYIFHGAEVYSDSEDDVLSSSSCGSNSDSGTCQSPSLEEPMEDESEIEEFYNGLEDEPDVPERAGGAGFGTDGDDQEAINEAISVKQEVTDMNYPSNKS
# PROTOCOL_DESCRIPTION: Trp mass spectrometry assay of SIRT1 activity
# Format: biochemical
# MEASUREMENT_SETUP: Trp assay; concentration giving 150% activation of SIRT1

MOLECULE	Trp EC1.5 (μM)
O=C(Nc1cnc2ccc(-c3ccccc3F)nn12)c1cccc(OCC(O)CO)n1 (stereo not shown)	A (EC1.5<1 μM)
O=C(Nc1cnc2ccc(-c3ccccc3F)nn12)c1nccs1	C (EC1.5>25 μM)
O=C(Nc1cncc(F)c1)c1cnc2ccc(N3CCCC(C(F)(F)F)C3)nn12 (stereo not shown)	A (EC1.5<1 μM)
Cc1nc2ccc(N3CC[C@H](N(C)C)C3)nn2c1C(=O)Nc1ccncc1F	C (EC1.5>25 μM)
Cc1cc(NC(=O)c2cnc3ccc(-c4ccccc4C(F)(F)F)nn23)nc(C)n1	C (EC1.5>25 μM)
COc1cc(OC)nc(NC(=O)c2cnc3ccc(-c4ccccc4C(F)(F)F)nn23)n1	B (EC1.5 1-25 μM)
Cc1nc(C(=O)Nc2cnc3ccc(-c4ccccc4OC(F)(F)F)nn23)cs1	C (EC1.5>25 μM)
Cc1cncc(NC(=O)c2cnc3ccc(N4CC[C@H](F)C4)nn23)c1	B (EC1.5 1-25 μM)
O=C(Nc1cccnn1)c1cnn2ccc(-c3ccccc3OC(F)(F)F)nc12	A (EC1.5<1 μM)
Cc1ccc(NC(=O)c2c(C)nc3c(OC[C@H](O)CO)cc(-c4ccccc4C(F)(F)F)nn23)cn1	A (EC1.5<1 μM)
Cc1nc2c(C)cc(-c3ccccc3C(F)(F)F)nn2c1C(=O)Nc1ccnc(C(C)C)n1	A (EC1.5<1 μM)
Cc1cncc(NC(=O)c2c(C)nn3ccc(-c4ccccc4Br)nc23)c1	A (EC1.5<1 μM)
O=C(Nc1ccncc1F)c1cnc2ccc(N3CCCC(C(F)(F)F)C3)nn12 (stereo not shown)	A (EC1.5<1 μM)
Cc1cc(NC(=O)c2cnn3ccc(-c4ccccc4OC(F)(F)F)nc23)ccn1	A (EC1.5<1 μM)
O=C(Nc1ccccn1)c1cnc2ccc(N3CC(F)(F)C3)nn12	B (EC1.5 1-25 μM)
CN(C)c1ccnc(NC(=O)c2cnc3ccc(N4CC[C@H](F)C4)nn23)n1	A (EC1.5<1 μM)
O=C(Nc1cnc2ccc(-c3ccccc3Cl)nn12)c1cccc(OCC(O)CO)n1 (stereo not shown)	A (EC1.5<1 μM)
Cc1ccc(C(=O)Nc2cnc3ccc(-c4ccccc4C(F)(F)F)nn23)cn1	C (EC1.5>25 μM)
Cc1ncccc1NC(=O)c1cnn2ccc(-c3ccccc3C(F)(F)F)nc12	A (EC1.5<1 μM)
Cc1nc2ccc(-c3ccccc3C(F)(F)F)nn2c1NC(=O)c1ccncn1	C (EC1.5>25 μM)
Cc1cc(NC(=O)c2cnc3ccc(-c4ccccc4F)nn23)ccn1	B (EC1.5 1-25 μM)
O=C(Nc1cnc2ccc(-c3ccccc3OC(F)(F)F)nn12)c1cccc(N2CCOCC2)n1	A (EC1.5<1 μM)

---

# TESTED_SYSTEM: SIRT1 (Homo sapiens, UniProt Q96EB6)
# PROTOCOL_DESCRIPTION: TAMRA based mass spectrometry assay of SIRT1 activity
# Assay type: biochemical
# MEASUREMENT_SETUP: TAMRA assay; concentration giving 150% activation of SIRT1
ENDPOINT_LABEL: TAMRA EC1.5 (μM)

STRUCTURE_NOTATION	TESTED_SYSTEM	RECORDED_RESULT
O=C(Nc1cnc2ccc(-c3ccccc3OC(F)(F)F)nn12)c1cccc(N2CCC2)n1	SIRT1 (Homo sapiens, UniProt Q96EB6)	A (EC1.5<1 μM)
Cc1cc(C)c(NC(=O)c2c(C)nn3ccc(-c4ccccc4Br)nc23)cn1	SIRT1 (Homo sapiens, UniProt Q96EB6)	B (EC1.5 1-25 μM)
Cc1nc2ccc(-c3ccccc3Cl)nn2c1NC(=O)c1ccccn1	SIRT1 (Homo sapiens, UniProt Q96EB6)	B (EC1.5 1-25 μM)
Cc1c(-c2ccccc2Cl)nn2c(C(=O)Nc3cccc(N4CCOCC4)n3)cnc2c1C	SIRT1 (Homo sapiens, UniProt Q96EB6)	A (EC1.5<1 μM)
O=C(Nc1ncc(F)cc1F)c1cnn2ccc(-c3ccccc3C(F)(F)F)nc12	SIRT1 (Homo sapiens, UniProt Q96EB6)	B (EC1.5 1-25 μM)
Cc1cccc(-c2ccc3nc(C)c(C(=O)Nc4cccnn4)n3n2)c1	SIRT1 (Homo sapiens, UniProt Q96EB6)	A (EC1.5<1 μM)
Cc1nc2c(OC[C@H]3COC(C)(C)O3)cc(-c3ccccc3C(F)(F)F)nn2c1C(=O)Nc1cccnn1	SIRT1 (Homo sapiens, UniProt Q96EB6)	A (EC1.5<1 μM)
Cc1cc(C)nc(C(=O)Nc2cnc3c(C)c(C)c(-c4ccccc4Cl)nn23)n1	SIRT1 (Homo sapiens, UniProt Q96EB6)	A (EC1.5<1 μM)
Cc1ccc(NC(=O)c2c(C)nn3ccc(-c4ccccc4C(F)(F)F)nc23)c(C)n1	SIRT1 (Homo sapiens, UniProt Q96EB6)	A (EC1.5<1 μM)
Cc1ccc(NC(=O)c2cnn3ccc(-c4ccccc4C(F)(F)F)nc23)c(C)n1	SIRT1 (Homo sapiens, UniProt Q96EB6)	B (EC1.5 1-25 μM)
